- experimental.details: soluble on expression in E. coli; label from the status in PepcDB or PDB records
reported.endpoint: soluble on expression in E. coli

[
  {
    "record.sequence": "MGSDKIHHHHHHADSVKIGFITDMSGLYADIDGQGGLEAIKMAVADFGGKVNGKPIEVVYADHQNKADIAASKAREWMDRGGLDLLVGGTNSATALSMNQVAAEKKKVYINIGAGADTLTNEQCTPYTVHYAYDTMALAKGTGSAVVKQGGKTWFFLTADYAFGKALEKNTADVVKANGGKVLGEVRHPLSASDFSSFLLQAQSSKAQILGLANAGGDTVNAIKAAKEFGITKTMKLAALLMFINDVHALGLETTQGLVLTDSWYWNRDQASRQWAQRYFAKMKKMPSSLQAADYSSVTTYLKAVQAAGSTDSDKVMAQLKKMKIDDFYAKGYIRTDGSMIHDMYLMEVKKPSESKEPWDYYKVVATIPGEQAFTTKQETRCALWK",
    "recorded.value": "not soluble"
  },
  {
    "record.sequence": "MGSDKIHHHHHHMKITLHGVAETLLITLYIRAKDAMAKHPILNDQKSLAIVEQIEYDFDKFDNSEASFYATLARIRVMDREIKKFIRENPNSQILSIGCGLDTRFERVDNGQIRWYNLDLPEVMEIRKLFFEEHERVTNIAKSALDETWTREVNPQNAPFLIVSEGVLMFLKEDDVETFLHILTNSFSQFMAQFDLCHKEMINKGKQHDTVKYMDTEFQFGITDGHEIVDLDPKLKQINLINFTDEMSKFELGTLRSLLPTIRKFNNCLGVYEYKASEKK",
    "recorded.value": "not soluble"
  }
]

====

- experimental.details: soluble on expression in E. coli; label from the status in PepcDB or PDB records

[
  {
    "record.sequence": "GSFTMADLDDIKDGKDFRTDQPQKNIPFTLKGCGALDWGMQSRLSRIFNPKTGKTVMLAFDHGYFQGPTTGLERIDINIAPLFEHADVLMCTRGILRSVVPPATNRPVVLRASGANSILAELSNEAVALSMDDAVRLNSCAVAAQVYIGSEYEHQSIKNIIQLVDAGMKVGMPTMAVTGVGKDMVRDQRYFSLATRIAAEMGAQIIKTYYVEKGFERIVAGCPVPIVIAGGKKLPEREALEMCWQAIDQGASGVDMGRNIFQSDHPVAMMKAVQAVVHHNETADRAYELYLSEKQ",
    "soluble on expression in E. coli": "soluble"
  },
  {
    "record.sequence": "MNRWQRAWRHLCSTGWQARRQFPAAQLKRLERQIAESERAHRGQLRFVVESALDWRAAWRGMSARERALQWFGELRVWDTEDNTGVLVYLLLAERRIEIVADRGIHRLAPAGEWAGICADMQRAFAAGAHVEGLESGLRRIHALLLAHAPRNGEPFVNELPDQVVVRLEHHHHHH",
    "soluble on expression in E. coli": "not soluble"
  },
  {
    "record.sequence": "MSLRGNFFSFVRISGQSMSPNLVNNQIVLLEKKANVSRGTVIVSKTNNLQKQNTGVQDIALRVVALPGDKVNYKKGQLYVNGKKVNQSYISSQVKTETGMSIDTGWSINSLSLSKNWPKSQRNIKKVQKNSYFVLADNRIDPVDSRQYGLIKKRQIEGVVKVFFLGNKNKDEGHHHHHH",
    "soluble on expression in E. coli": "not soluble"
  },
  {
    "record.sequence": "FKIETTPESRYLAQIGDSVSLTCSTTGCESPFFSWRTQIDSPLNGKVTNEGTTSTLTMNPVSFGNEHSYLCTATCESRKLEKGIQVEIYSFPKDPEIHLSGPLEAGKPITVKCSVADVYPFDRLEIDLLKGDHLMKSQEFLEDADRKSLETKSLEVTFTPVIEDIGKVLVCRAKLHIDEMDSVPTVRQAVKELQVYISPKNT",
    "soluble on expression in E. coli": "soluble"
  },
  {
    "record.sequence": "MAHHHHHHMRNSLRLRLSSTSSSLLRSTFWLRQCGSGGCGFSGGPGGYPTDADALAKILTQAKKGSFNGSSSSPSDFFDGRFVGGSPTMDPAMLQDMHQKLNQSLTPEVRESMKAMMESIQRGDGMPQMGMMAFGVGENEKGKKVARGAKLMFDPSTGKLSKDFVEKQLEDDDPVLPKETVGDYNTEGAIEVEFEEDARKEASVRENIPEAEVIVEEVPREK",
    "soluble on expression in E. coli": "not soluble"
  },
  {
    "record.sequence": "NEPFHLATERNRVAVMSSGGKESLTTFGMLREIGADVFPVFFNESGGHWKTAKIAYDYMKKNYSNVHKVWSNVDRFYSFMNGHMPMLDQKEIRKTADSYPVQ",
    "soluble on expression in E. coli": "not soluble"
  },
  {
    "record.sequence": "MKLIAESGSTRTEWALVEDNHLVQRVFTEGLNPFFQTRREISRSVRLGLPESFFKKKLDQVYYYGAGCSSYEKKNILGASLVAQFKTPIQVESDLLAAARGLFKCEAGIACILGTGSNSCFYDGKIIVKNVKAAGYILGDEGSGAVLGKLFLADLLKGLAPKELANEFHEKFRISVNDVMESVYNLPFPNRFLGTIAYFLGDYMDNEYVYNLLTNNLRSFFNRNVCQYDYINYPIRFVGSLAYAYPDILQEVAQEFGVEIDVIEETPMNGLIEFHSMNIEESMAGDPLEHHHHHH",
    "soluble on expression in E. coli": "not soluble"
  }
]
